For each entry below, report its GI50 value.
# Tested on: OVCAR-5
# Experiment notes: NCI tumour cell line growth inhibition, 48 h
Activity calls are given as the source filed them. Cut-off read from the data, not from the text of the source: active = GI50 up to about 1.1 µM and inactive = higher.

Requested read-out GI50, target or system OVCAR-5, entry Clc1ccc(/C=C/c2nc(Cl)c(-c3ccc(Cl)cc3)c(Cl)n2)cc1 > 100 µM (inactive)

Hi! What's the reported GI50 for CCN1c2cc(Br)cc3[nH]c(=O)n(c23)CCC1C (stereo not given) on OVCAR-5? 20.2 µM (inactive)

What value of GI50 on OVCAR-5 does C1=Cc2ccccc2C1.C=C(C)c1ccccc1.[N-]=[N+]=Nc1ccccc1 have? > 100 µM (inactive)

Item O=C1NC(c2ccc(O)cc2)C2CCC1C2 (stereo not given) with OVCAR-5 - GI50? > 100 µM (inactive)

What value of GI50 on OVCAR-5 does COC1C(OC(=O)/C=C/C=C/C=C/C=C/C(=O)O)CCC2(CO2)C1C1(C)OC1CC=C(C)C (stereo not given) have? > 78.2 µM (inactive)

Kindly state the measured GI50 obtained for COC(=O)C1=C(O)C(C(=O)OC)[C@@]2(O)[C@@H](C(=O)OC)C(c3ccc(OC(=O)/C=C/c4ccccc4)cc3)C[C@@H]1[C@@H]2C(=O)OC (stereo not given in full) with OVCAR-5. 12.1 µM (inactive)

What measured GI50 is associated with Cc1ccc2nc(NC(=O)C(=O)C(C(=O)c3ccc4ccccc4c3)C3OC(=O)c4ccccc43)sc2c1 (stereo not given) on OVCAR-5? 11.6 µM (inactive)

Form entry - test system: OVCAR-5; read-out: GI50; compound: Cc1ccc(NC(=O)COc2ccc(Cl)cc2)cc1Cl 68.1 µM (inactive)

Missing value: GI50, OVCAR-5, entry CN(C)c1ccc(/C=C/c2cc[n+](C)c3ccccc23)cc1 . Fill in? 6.43 µM (inactive)

What measured GI50 is associated with O=CN1CCN(CC(O)CN2CCCCC2)CC1 (stereo not given) on OVCAR-5? > 100 µM (inactive)
